From: the RNAGym collection of RNA variant scans (doi:10.7554/elife.90254)

B1: LINE1-full (parent)
chain: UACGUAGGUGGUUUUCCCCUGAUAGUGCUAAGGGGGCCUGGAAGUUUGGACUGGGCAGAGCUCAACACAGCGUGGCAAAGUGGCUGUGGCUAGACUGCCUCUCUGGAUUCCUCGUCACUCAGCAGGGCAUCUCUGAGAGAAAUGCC

Variants of: B1
Test: self-cleavage, relative activity (ratio to wild type); higher = more cleavage; in vitro, sequencing; the parent is a self-cleaving ribozyme
PROPERTY_MEASURED: self-cleavage
Output spec: single numeric token, no unit.

Task item: Would you mind telling me what self-cleavage value was observed for U73C U112A ?
Reply: 1.41

Task item: Would you mind telling me what self-cleavage value was observed for A65G U104C ?
Reply: 0.01

Task item: Would you mind telling me what self-cleavage value was observed for A64G U96C ?
Reply: 0.15

Task item: Would you mind telling me what self-cleavage value was observed for U47A A94U ?
Reply: 0.18

Task item: Would you mind telling me what self-cleavage value was observed for G21A A142G ?
Reply: 1.66

Task item: Would you mind telling me what self-cleavage value was observed for C120U A141U ?
Reply: 0.95

Task item: Would you mind telling me what self-cleavage value was observed for U96A G105A ?
Reply: 0.04

Task item: Would you mind telling me what self-cleavage value was observed for A64U A142G ?
Reply: 0.47

Task item: Would you mind telling me what self-cleavage value was observed for A64G U87C ?
Reply: 0.06

Task item: Would you mind telling me what self-cleavage value was observed for U46C A129G ?
Reply: 2.35

Task item: Would you mind telling me what self-cleavage value was observed for A42G G82A ?
Reply: 1.95

Task item: Would you mind telling me what self-cleavage value was observed for U5C A67U ?
Reply: 0.47

Task item: Would you mind telling me what self-cleavage value was observed for A59G U104A ?
Reply: 0.14

Task item: Would you mind telling me what self-cleavage value was observed for U45A U143A ?
Reply: 1.21

Task item: Would you mind telling me what self-cleavage value was observed for C84A A138G ?
Reply: 0.05
